Molecular target: recombinant human IDO1 enzyme (Homo sapiens, UniProt P14902)
Assay: In vitro hIDO1 enzyme activity test (NFK Green fluorescence)
Conditions: recombinant human IDO1, L-tryptophan substrate, pH 6.5
Method: The change of NFK production was detected by using the NFK Green™ fluorescent molecule, which is the metabolite of the IDO1 enzyme, and the IC50 value of the compound was used as an index, to evaluate the inhibitory effect of the compound on the recombinant human IDO1 enzyme. IDO1 Enzyme Activity Assay Kit, NTRC # NTRC-hlDO-10K; The compound was diluted to 1 mM in DMSO, and then diluted 3-fold in duplicate wells, with 10 gradients. […]
pIC50: −log10 of the molar value.
Measure Name: pIC50

Some molecules with known pIC50 results, for comparison:
Molecule	pIC50
FC1(F)[C@@H]2C[C@@H](C3c4sccc4-c4cncn43)C[C@@H]21 (single isomer, unassigned) [Example 62]	6.70
CC1(C)CC(C2c3sccc3-c3cncn32)CCO1 (single isomer, unassigned) [Example 80]	5.30
OC1CCCC(C2c3sccc3-c3cncn32)C1 (single isomer, unassigned) [Example 67]	6.79

A = OC1CCC(C2c3sccc3-c3cncn32)CC1 (single isomer, unassigned) [Example 117]
B = CC(C)(C)C1c2sccc2-c2cncn21 (stereo not shown)
C = FC1(F)CCC([C@H]2c3sccc3-c3cncn32)CC1 (single isomer, unassigned)
D = OC1CC(C2c3sccc3-c3cncn32)C1 (single isomer, unassigned) [Example 61]
Rank the 4 molecules: largest pIC50 first, smallest last. # answer = labels listed in requested order
C, A, D, B
(C: 7.32, A: 6.67, D: 5.92, B: 5.28)

* * *

Target: recombinant human IDO1 enzyme (Homo sapiens, UniProt P14902)
Assay: In vitro hIDO1 enzyme activity test (NFK Green fluorescence)
Conditions: recombinant human IDO1, L-tryptophan substrate, pH 6.5
Measure Name: IC50 (nM)

Some compounds with known IC50 results, for comparison:
Compound	Observed Measurement
OCC1(C2c3sccc3-c3cncn32)CCCCC1 (single isomer, unassigned) [Example 42]	253
c1cc2c(s1)C(CC1CCCCC1)n1cncc1-2 (single isomer, unassigned) [Example 16]	71
Fc1cc2c(s1)C(CCC1CCCCC1)n1cncc1-2 (single isomer, unassigned) [Example 20]	586
O[C@@H]1CCCC1[C@H]1c2sccc2-c2cncn21 (single isomer, unassigned) [Example 107]	183
Cc1cc2c(s1)C(C1CCCCC1)n1cncc1-2 (single isomer, unassigned) [Example 91]	6750
c1cc2c(s1)C(CCC1CCCCC1)n1cncc1-2 (single isomer, unassigned) [Example 9]	55

a = OC1CCCCC1C1c2sccc2-c2cncn21 (single isomer, unassigned) [Example 85]
b = c1ccc2c(c1)CCC(C1c3sccc3-c3cncn31)C2 (single isomer, unassigned) [Example 57]
# compare IC50 for a vs b ; return the one with the smaller value Response format: the label of the selected entry.
a

* * *

Biological target: IDO1 enzyme in Hela cells (Homo sapiens)
Construct: recombinant human γ-interferon was added at a final concentration of 100 ng/mL to induce IDO1 expression; endogenous in cells
Sequence (P14902 whole entry): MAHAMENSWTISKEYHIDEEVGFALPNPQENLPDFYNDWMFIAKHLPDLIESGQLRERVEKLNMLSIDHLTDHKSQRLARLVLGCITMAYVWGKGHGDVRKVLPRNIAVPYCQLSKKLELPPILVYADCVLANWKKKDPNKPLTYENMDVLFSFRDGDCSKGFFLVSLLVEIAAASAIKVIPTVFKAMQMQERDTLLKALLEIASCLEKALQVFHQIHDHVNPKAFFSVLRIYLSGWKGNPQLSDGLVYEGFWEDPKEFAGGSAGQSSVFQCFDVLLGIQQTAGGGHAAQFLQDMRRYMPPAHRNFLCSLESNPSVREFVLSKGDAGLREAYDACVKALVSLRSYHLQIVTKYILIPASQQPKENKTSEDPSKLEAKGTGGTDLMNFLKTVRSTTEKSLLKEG
Experiment: hIDO1 cytological activity assay (kynurenine in Hela cells by LC-MS)
Details: Hela cells induced with 100 ng/mL recombinant human γ-interferon, 20 h, read-out: IC50 hIDO1 Cytoactive
Experimental: The change of kynurenine in Hela cells was detected by the LC-MS method, and the IC50 value of the compound was used as an index, to evaluate the inhibitory effect of the compound on IDO1 enzyme. A medium, trypsin and DPBS were pre-heated in a 37° C. water bath. […] 10 μL of recombinant human γ-interferon was added at a final concentration of 100 ng/mL to induce IDO1 expression. […] The content of kynurenine was determined by LC-MS. […]
pIC50: −log10 of the molar value.
Measure Name: pIC50

Compound	pIC50
O[C@@H](C[C@H]1c2sccc2-c2cncn21)C1CCC(F)(F)CC1	7.55

a = c1cc2c(s1)C(CC1CCCCC1)n1cncc1-2 (single isomer, unassigned)
b = c1cc2c(s1)C(C1CCCCC1)n1cncc1-2 (single isomer, unassigned)
Returns: the argument ( a or b ) having the larger pIC50. Response format: the label of the selected entry.
b
(b: 6.66, a: 6.04)

* * *

Target: recombinant human IDO1 enzyme (Homo sapiens, UniProt P14902)
Assay: In vitro hIDO1 enzyme activity test (NFK Green fluorescence)
Conditions: recombinant human IDO1, L-tryptophan substrate, pH 6.5
Experimental: The change of NFK production was detected by using the NFK Green™ fluorescent molecule, which is the metabolite of the IDO1 enzyme, and the IC50 value of the compound was used as an index, to evaluate the inhibitory effect of the compound on the recombinant human IDO1 enzyme. IDO1 Enzyme Activity Assay Kit, NTRC # NTRC-hlDO-10K; The compound was diluted to 1 mM in DMSO, and then diluted 3-fold in duplicate wells, with 10 gradients. […]
Measure Name: IC50 (nM)

Molecule	Target	Measure Name	Unit Symbol	Observed Measurement
FC1(F)[C@@H]2C[C@H](C3c4sccc4-c4cncn43)C[C@@H]21 (single isomer, unassigned)	recombinant human IDO1 enzyme (Homo sapiens, UniProt P14902)	IC50	nM	883

1 = OC1CCCCC1C1c2sccc2-c2cncn21 (single isomer, unassigned) [Example 52]
2 = CC(C)(C(O)C1CCCCC1)C1c2sccc2-c2cncn21 (single isomer, unassigned) [Example 119]
# compare IC50 for 1 vs 2 ; return the one with the smaller value Response format: the label of the selected entry.
2
(2: 390 nM, 1: 676 nM)

* * *

Biological target: recombinant human IDO1 enzyme (Homo sapiens, UniProt P14902)
Experiment: In vitro hIDO1 enzyme activity test (NFK Green fluorescence)
Details: recombinant human IDO1, L-tryptophan substrate, pH 6.5
Measure Name: IC50 (nM)

Compound	Unit Symbol	IC50
c1cc2c(s1)C(C1CCCOC1)n1cncc1-2 (single isomer, unassigned) [Example 36]	nM	2430
OC1CC(C2c3sccc3-c3cncn32)C1 (single isomer, unassigned) [Example 58]	nM	2100

* * *

Biological target: recombinant human IDO1 enzyme (Homo sapiens, UniProt P14902)
Test: In vitro hIDO1 enzyme activity test (NFK Green fluorescence)
Details: recombinant human IDO1, L-tryptophan substrate, pH 6.5
Experimental: The change of NFK production was detected by using the NFK Green™ fluorescent molecule, which is the metabolite of the IDO1 enzyme, and the IC50 value of the compound was used as an index, to evaluate the inhibitory effect of the compound on the recombinant human IDO1 enzyme. IDO1 Enzyme Activity Assay Kit, NTRC # NTRC-hlDO-10K; The compound was diluted to 1 mM in DMSO, and then diluted 3-fold in duplicate wells, with 10 gradients. […]
Measure Name: IC50 (µM)

a = c1cc2c(s1)C(C1CCCOC1)n1cncc1-2 (single isomer, unassigned) [Example 35]
b = OC1CCCC(C2c3sccc3-c3cncn32)C1 (single isomer, unassigned) [Example 68]
c = CC(C)(C(O)C1CCCCC1)C1c2sccc2-c2cncn21 (single isomer, unassigned) [Example 121]
d = OC1CCCC(C2c3sccc3-c3cncn32)C1 (single isomer, unassigned) [Example 65]
Put the molecules in ascending order of IC50. # answer = labels listed in requested order
c, b, a, d
(c: 0.585 µM, b: 1.83 µM, a: 2.81 µM, d: 5.53 µM)

1 = OC1CCC(C2c3sccc3-c3cncn32)CC1 (single isomer, unassigned) [Example 115]
2 = OC(CC1c2sccc2-c2cncn21)C1CCCCC1 (single isomer, unassigned) [Example 7]
Returns: the argument ( 1 or 2 ) having the larger IC50. Response format: the label of the selected entry.
1

P = FC1(F)CCC(CCC2c3sccc3-c3cncn32)CC1 (single isomer, unassigned) [Example 21]
Q = O=C1CC[C@H]2C[C@@H]([C@@H](O)CC3c4sccc4-c4cncn43)CCN12 (single isomer, unassigned) [Example 27]
R = c1cc2c(s1)C(C1CCCCC1)n1cncc1-2 (single isomer, unassigned) [Example 14]
Rank the 3 molecules: largest IC50 first, smallest last. # answer = labels listed in requested order
P, Q, R

* * *

Molecular target: recombinant human IDO1 enzyme (Homo sapiens, UniProt P14902)
Assay: In vitro hIDO1 enzyme activity test (NFK Green fluorescence)
Settings: recombinant human IDO1, L-tryptophan substrate, pH 6.5
Measure Name: IC50 (µM)

Some compounds with known IC50 results, for comparison:
Compound	Measure Name	Unit Symbol	Observed Measurement
FC1(F)[C@@H]2C[C@@H](C3c4sccc4-c4cncn43)C[C@@H]21 (single isomer, unassigned) [Example 63]	IC50	µM	8.8
OC1CCCC(C2c3sccc3-c3cncn32)C1 (single isomer, unassigned) [Example 70]	IC50	µM	1.09
CC(C)CC1c2sccc2-c2cncn21 (centres unmarked)	IC50	µM	1.03
c1cc2c(s1)C(C1CCC3(CC1)CC3)n1cncc1-2 (single isomer, unassigned) [Example 45]	IC50	µM	3.83
OC1CCCCC1C1c2sccc2-c2cncn21 (single isomer, unassigned) [Example 82]	IC50	µM	1.55
O=C(O)C1CCCC(C2c3sccc3-c3cncn32)C1 (single isomer, unassigned) [Example 100]	IC50	µM	6.77

P = OCCC1c2sccc2-c2cncn21 (centres unmarked)
Q = OC1CCCCC1C1c2sccc2-c2cncn21 (single isomer, unassigned) [Example 53]
R = OC(CC1c2ccsc2-c2cncn21)C1CCCCC1 (centres unmarked)
S = OC1CCCCC1C1c2sccc2-c2cncn21 (single isomer, unassigned) [Example 83]
Please order the records by their reported IC50, lowest number first. # answer = labels listed in requested order
R, Q, S, P
